Cited source: PubChem BioAssay AID2620

- study system: Pyruvate kinase PKM (Homo sapiens) (UniProt P14618)
- Sequence (P14618 whole entry, looked up, canonical isoform): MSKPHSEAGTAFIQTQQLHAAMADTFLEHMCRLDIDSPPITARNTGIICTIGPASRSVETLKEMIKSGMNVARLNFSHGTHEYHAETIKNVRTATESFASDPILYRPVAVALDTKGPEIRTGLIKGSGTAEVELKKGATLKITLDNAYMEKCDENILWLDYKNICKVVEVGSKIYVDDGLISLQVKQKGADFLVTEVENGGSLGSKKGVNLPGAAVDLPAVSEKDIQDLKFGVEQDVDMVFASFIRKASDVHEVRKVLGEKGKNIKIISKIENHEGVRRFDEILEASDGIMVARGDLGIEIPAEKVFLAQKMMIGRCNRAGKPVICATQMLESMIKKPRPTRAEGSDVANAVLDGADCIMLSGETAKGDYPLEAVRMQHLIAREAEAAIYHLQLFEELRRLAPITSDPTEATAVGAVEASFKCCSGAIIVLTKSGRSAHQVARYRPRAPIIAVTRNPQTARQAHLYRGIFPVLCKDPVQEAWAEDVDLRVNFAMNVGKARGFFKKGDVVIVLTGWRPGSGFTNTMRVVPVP
- experiment: Secondary LDH Assay for Activators of Human Pyruvate Kinase M1 Isoform: for Probe SAR
- test conditions: purified hPK-M1, LDH-coupled NADH fluorescence kinetic; series mostly up to 58.2 µM
Inconclusive results are not listed. Calls of active or inactive are those of the source. Calls come from the whole dose curve; as a rule, active = well fitted curve in the direction sought with a large enough effect; inconclusive = small, poorly fitted or top-dose-only effect, or another doubt; inactive = no such curve, though single readings can be large or run the other way.
readout label: outcome

Observe how each entry below is paired with its result.
entry smiles: Cc1ccc2nc(-c3cccs3)c(Nc3ccccc3)n2c1
study system: Pyruvate kinase PKM (Homo sapiens) (UniProt P14618)
outcome: inactive

entry smiles: CCNc1cccc(S(=O)(=O)N2CCN(S(=O)(=O)c3ccc4c(c3)OCCO4)CC2)c1
study system: Pyruvate kinase PKM (Homo sapiens) (UniProt P14618)
outcome: inactive

entry smiles: Cc1ccc(Nc2c(-c3ccsc3)nc3cccc(C)n23)cc1
study system: Pyruvate kinase PKM (Homo sapiens) (UniProt P14618)
outcome: inactive

entry smiles: Cc1ccc(NS(=O)(=O)c2ccc3c(c2)CCC(=O)N3)cc1
study system: Pyruvate kinase PKM (Homo sapiens) (UniProt P14618)
outcome: inactive

entry smiles: O=C1CCc2cc(S(=O)(=O)Nc3cccc(Br)c3)ccc2N1
study system: Pyruvate kinase PKM (Homo sapiens) (UniProt P14618)
outcome: inactive

Could you tell me outcome for each of these molecules? They are listed below.
1. O=S1(=O)N=C(Oc2cccc(Cl)c2)c2ccccc21
2. O=C1CCc2cc(S(=O)(=O)Nc3ccc4ncccc4c3)ccc2N1
3. O=C1c2ccccc2C(=O)N1c1cccc2cnccc12
4. Cc1ccc(N[S+](=O)([O-])c2cc3c(cc2CCc2ccccc2)NC(=O)CO3)cc1C
5. COc1cccc(Cn2ncc3c4sc(SC)cc4n(C)c3c2=O)c1
6. Nc1cc(S(=O)(=O)N2CCN(S(=O)(=O)c3ccc4c(c3)OCCO4)CC2)ccn1

Response:
["inactive", "inactive", "inactive", "inactive", "inactive", "inactive"]
